- test: basal HepG2 mitochondrial membrane potential changes, profiling panel, cell-based, JC-1 fluorescence, 24 h, 100 nL compound (AID 1167); note: test concentration not given here
- experimentalParameters: higher = more signal
Classify as follows. Reported z-score greater than or equal to -0.2: 1. Reported z-score below: 0.

Has COCC(=C=CC[C@@H](O)c1ccccc1OCCO)C[C@@H](O)c1cc(Cl)cc(Cl)c1O a recorded z-score greater than or equal to -0.2?
0

Has C=CC[C@@]1(C(N)=O)N=C(c2ccc(OCCCO)cc2)O[C@@H]1c1ccccc1CN=[N+]=[N-] a recorded z-score greater than or equal to -0.2?
0

Has C[C@@H]1ON(c2cccc(C(=O)OC(C)(C)C)c2)[C@H](c2ccc(Br)cc2)[C@H]1C(=O)N1C(=O)OC[C@H]1Cc1ccccc1 a recorded z-score greater than or equal to -0.2?
0

Has CN1C(=O)C2C=CC(C(O)Cc3ccccc3)N(Nc3ccccc3)C2C1=O (centres undefined) a recorded z-score greater than or equal to -0.2?
0

Has [N-]=[N+]=Nc1ccccc1C[C@]1(C(=O)NCC(O)CO)N=C(c2ccc(OCCCO)cc2)O[C@H]1c1ccccc1N=[N+]=[N-] (some centres undefined) a recorded z-score greater than or equal to -0.2?
1

Has CC(C)(C)OC(=O)CC[C@]1(C(=O)NCC(O)CO)COC(c2ccc(OCCCO)cc2)=N1 (some centres undefined) a recorded z-score greater than or equal to -0.2?
0

Has CC1CC/C=C\[C@H]2OC34C=CCN(C(C)(C)C)C(=O)[C@H]3N(CCCCCCO)C(=O)[C@@H]4C2C(=O)O1 (some centres undefined) a recorded z-score greater than or equal to -0.2?
1

Has CCCCCN1CC=CC23O[C@@H]4/C=C\CCCOC(=O)C4[C@H]2C(=O)N(CCCO)[C@@H]3C1=O (some centres undefined) a recorded z-score greater than or equal to -0.2?
0

Has C=CCOC(=O)[C@H]1[C@@H]2C(=O)O[C@@H](c3ccccc3)[C@@H](c3ccccc3)N2[C@@H](c2ccc(OCCOC(=O)[C@H]3C[C@H]4C(=O)N5CCC[C@H]5C(=O)N4[C@H]3c3ccc(O)cc3)cc2)[C@]12C(=O)Nc1ccc(I)cc12 a recorded z-score greater than or equal to -0.2?
0

Has COc1ccc([Si](C)(C)[C@H]2[C@H](CC(=O)N3CCC[C@H]3CO)O[C@@]3(C(=O)N(Cc4cccc(N5C(=O)c6cccc7cccc5c67)c4)c4ccccc43)[C@@H]2C)cc1 a recorded z-score greater than or equal to -0.2?
1

Has O=C1NC(=O)C2C1C=CC(C(O)Cc1ccccc1)N2Nc1ccc(Cl)cc1Cl (centres undefined) a recorded z-score greater than or equal to -0.2?
0

Has COCCOC(=O)N1C(=O)[C@@]2(c3cc(C#CC4=CCCCC4)ccc31)[C@H](C(=O)N1CCc3cc(OC)c(OC)cc3C1)[C@H]1C(=O)O[C@H](c3ccccc3)[C@H](c3ccccc3)N1[C@@H]2c1ccc(OCCO)cc1 a recorded z-score greater than or equal to -0.2?
0

Has C=C(CCCC)C(=O)CC[C@H](OC(=O)c1cccnc1)c1ccccc1OCCO a recorded z-score greater than or equal to -0.2?
1

Has CCN(CC)c1ccc(N2CC=CC34O[C@@H]5/C=C\CCCOC(=O)C5[C@H]3C(=O)N(CCO)[C@@H]4C2=O)cc1 (some centres undefined) a recorded z-score greater than or equal to -0.2?
0

* * *

- test: A549 cell viability effects, profiling panel, calcein-AM fluorescence, 48 h, basal (AID 1162); note: test concentration not given here
- experimentalParameters: higher = more signal
Classify as follows. Reported z-score greater than or equal to 0.6: Y. Reported z-score below: N.

Has CC(=O)n1cc(C(O)C2C=CC3C(=O)N(C)C(=O)C3N2Nc2ccccc2)c2ccccc21 (stereo not drawn) a recorded z-score greater than or equal to 0.6?
N

Has COC(=O)[C@@]1(Cc2ccc(OC)cc2)[C@H]2c3cc(C(=O)N(C)C)n(CCN4CNCC4=O)c3C[C@H]2CN1C(=O)c1ccccc1 a recorded z-score greater than or equal to 0.6?
N

Has O=C(C1N=C(c2ccc(OCCCO)cc2)N(c2ccccc2)O1)N1CCOCC1 (stereo not drawn) a recorded z-score greater than or equal to 0.6?
Y

Has COc1cc2c(cc1OC)CN(C(=O)[C@H]1[C@@H]3C(=O)O[C@@H](c4ccccc4)[C@@H](c4ccccc4)N3[C@@H](c3ccc(O)cc3)[C@]13C(=O)Nc1ccc(C#CCNC(N)=O)cc13)CC2 a recorded z-score greater than or equal to 0.6?
N

Has COCCOC(=O)N1C(=O)[C@@]2(c3cc(C#CCCO)ccc31)[C@H](c1ccc(OCCO)cc1)N1[C@H](c3ccccc3)[C@H](c3ccccc3)OC(=O)[C@H]1[C@@H]2C(=O)N1CCN(c2ncccn2)CC1 a recorded z-score greater than or equal to 0.6?
N

Has C=CCC(OC(C)=O)[C@@H]1[C@@H](N(Cc2cccc3ccccc23)C(=O)c2ccc(-c3ccccc3)cc2)c2cc(OCCCO)ccc2N1C(=O)Cc1ccc(OC)cc1 (stereo partly drawn) a recorded z-score greater than or equal to 0.6?
Y

Has [N-]=[N+]=Nc1ccccc1[C@H]1OC(c2ccc(OCCCO)cc2)=N[C@@]1(Cc1ccccc1)C(=O)O a recorded z-score greater than or equal to 0.6?
Y

Has COc1ccc(C(O)C2C=CC3C(=O)N(c4ccccc4)C(=O)C3N2Nc2ccccc2F)cc1OCc1ccccc1 (stereo not drawn) a recorded z-score greater than or equal to 0.6?
N

Has Cc1ccc(S[C@]2(C(=O)NCCN3CCOCC3)CC(=O)N(Cc3ccccc3Cl)[C@@H]2c2ccc(CO)cc2)cc1 a recorded z-score greater than or equal to 0.6?
N

Has CC(C)C[C@@H]1NC(=O)[C@H]2C[C@@H](C(=O)NCCCCCCN(C)C)[C@@H](c3ccc(O)cc3)N2C1=O a recorded z-score greater than or equal to 0.6?
N

Has CCCCCCC#C[Si](O[C@H](c1ccccc1)c1cn([C@H](CO)Cc2ccccc2)nn1)(C(C)C)C(C)C a recorded z-score greater than or equal to 0.6?
Y

Has C=CCOC(=O)[C@H]1[C@@H]2C(=O)O[C@@H](c3ccccc3)[C@@H](c3ccccc3)N2[C@@H](c2ccc(OCCOC(=O)[C@H]3C[C@H]4C(=O)N[C@@H](CC(C)C)C(=O)N4[C@H]3c3ccc(O)cc3)cc2)[C@]12C(=O)Nc1ccc(I)cc12 a recorded z-score greater than or equal to 0.6?
Y

Has CN(C)CCCNC(=O)[C@@]1(c2ccc([N+](=O)[O-])cc2)CC(=O)N(C2CCCCC2)[C@@H]1c1ccc(CO)cc1I a recorded z-score greater than or equal to 0.6?
N

* * *

- test: MM1S myeloma cell viability, profiling panel, resazurin fluorescence, basal, 24 h, PK04 Diversity Set (AID 1174);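 note: MM1S multiple myeloma cell line; test concentration not given here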
- experimentalParameters: higher = more signal, called active from +8 up or from −8 down
Provide the reported z-score of each item.
Keep the answer to the number alone.

# return recorded z-score for input COCCOC(=O)N1C(=O)[C@@]2(c3cc(C#CCCO)ccc31)[C@H](C(=O)N1CCc3cc(OC)c(OC)cc3C1)[C@H]1C(=O)O[C@H](c3ccccc3)[C@H](c3ccccc3)N1[C@@H]2c1ccc(O)cc1
-0.419

# return recorded z-score for input CCCCCN1CC=CC23O[C@@H]4/C=C\CCCOC(=O)C4[C@H]2C(=O)N(CCCO)[C@@H]3C1=O (stereo partly drawn)
1.21

# return recorded z-score for input CCCC#C[Si](O[C@H](CC)c1cn([C@H](CO)Cc2ccccc2)nn1)(C(C)C)C(C)C
0.11

# return recorded z-score for input COCCOC(=O)N1C(=O)[C@@]2(c3cc(C#CC4=CCCCC4)ccc31)[C@H](C(N)=O)[C@H]1C(=O)O[C@H](c3ccccc3)[C@H](c3ccccc3)N1[C@@H]2c1ccc(OCCO)cc1
-1.95

# return recorded z-score for input COc1ccc(C(O)C2C=CC3C(=O)N(c4ccccc4)C(=O)C3N2Nc2ccc(C(C)C)cc2)cc1OCc1ccccc1 (stereo not drawn)
-0.0284

# return recorded z-score for input O=C1OCCC/C=C\[C@H]2OC34C=CCN(Cn5nnc6ccccc65)C(=O)[C@H]3N(CCCCCCO)C(=O)[C@@H]4C12 (stereo partly drawn)
0.651

# return recorded z-score for input CC(=O)NCCCC[C@@H]1NC(=O)[C@@H]2C[C@H](C(=O)NCCCCCCNC(=O)CS)[C@H](c3cccc(OCCO)c3)N2C1=O
-0.449

# return recorded z-score for input Cc1ccc(S[C@]2(C(=O)NCCN3CCOCC3)CC(=O)N(Cc3ccccc3)[C@@H]2c2ccc(CO)cc2I)cc1
-2.91

# return recorded z-score for input COCCCN1C(=O)[C@@]2(c3ccc([N+](=O)[O-])cc3)CC(=O)N(C3CCCCC3)[C@@H]2c2ccc(CO)cc21
-0.559

# return recorded z-score for input COc1ccc(C(=O)Nc2ccc(CN3C(=O)[C@@]4(O[C@@H](CCn5cc([C@H](O)c6ccccc6)nn5)[C@H]([Si](C)(C)c5ccc(OC)cc5)[C@H]4C)c4ccccc43)cc2)cc1
-3.18

# return recorded z-score for input COc1cc(OC)c(C(O)C2C=CC3C(=O)NC(=O)C3N2Nc2ccc(Cl)cc2Cl)cc1Br (stereo not drawn)
-2.48

# return recorded z-score for input COCCOC(=O)N1C(=O)[C@@]2(c3cc(C#CCCO)ccc31)[C@H](C(=O)Nc1nc3ccccc3s1)[C@H]1C(=O)O[C@H](c3ccccc3)[C@H](c3ccccc3)N1[C@@H]2c1ccc(OCCO)cc1
-0.922

# return recorded z-score for input COC(=O)[C@@]1(Cc2ccccc2)[C@H]2c3cc(C(=O)N(C)C)n(CCSCCO)c3C[C@H]2CN1C(=O)c1ccccc1
-0.345
